Where do the numbers come from? From the supplement of paper PMC12645437.

- target or system: T1, CRBN, Q96SW2;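 also: pooled lentiviral library of zinc finger degron-EGFP fusions in mCherry-positive Jurkat cells, FACS-sorted after compound exposure, with degron abundance counted by next-generation sequencing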
- T1 chain: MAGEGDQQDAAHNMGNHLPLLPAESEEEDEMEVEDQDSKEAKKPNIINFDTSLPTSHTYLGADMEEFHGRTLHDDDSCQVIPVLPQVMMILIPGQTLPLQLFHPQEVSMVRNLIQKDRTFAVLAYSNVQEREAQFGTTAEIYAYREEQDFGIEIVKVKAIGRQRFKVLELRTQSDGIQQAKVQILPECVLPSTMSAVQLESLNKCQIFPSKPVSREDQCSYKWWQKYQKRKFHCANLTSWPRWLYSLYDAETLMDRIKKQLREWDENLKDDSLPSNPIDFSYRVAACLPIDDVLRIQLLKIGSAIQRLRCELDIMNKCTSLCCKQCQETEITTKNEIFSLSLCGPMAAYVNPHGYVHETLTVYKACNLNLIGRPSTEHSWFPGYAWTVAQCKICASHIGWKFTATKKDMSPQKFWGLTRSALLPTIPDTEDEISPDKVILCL
- experiment: log2 fold change of degron read counts, EGFP-low vs EGFP+ sorted cells (limma voom), compound-induced degradation; higher = more compound-induced degradation of the degron-EGFP fusion; degrons are variants of IKZF1/3 zinc finger 2; compound dose not given here
- measurement parameters: Jurkat; 18 h; compound: compound 19 (5-tert-butyl-thalidomide)
In all, about 8,300 sequences were measured (“log2 fold change of degron read counts, EGFP-low vs EGFP+ sorted cells (limma voom), compound-induced degradation”: median about -1.1, highest 2% from about 3.2 on). Shown is part of a subset that was picked to be rich in the highest values.
Below, each entry is listed with its recorded log2 fold change of degron read counts.

[
  {
    "sequence record": "FNCPICGAPFTQKGNLLRHIKL [46F_47N_49P_50I_52G_53A_54P_55F_67L_, Q9UKT9]",
    "log2 fold change of degron read counts": 3.48
  },
  {
    "sequence record": "FNCPICGAMFTQKGNLLRHIKL [46F_47N_49P_50I_52G_53A_54M_55F_67L_, Q9UKT9]",
    "log2 fold change of degron read counts": 1.73
  },
  {
    "sequence record": "FRCPQCGAPFTQKGNLLRHIKL [46F_47R_49P_50Q_52G_53A_54P_55F_67L_, Q9UKT9]",
    "log2 fold change of degron read counts": 0.857
  },
  {
    "sequence record": "FFCPICGAMFTQKGNLLRHIKL [46F_47F_49P_50I_52G_53A_54M_55F_67L_, Q9UKT9]",
    "log2 fold change of degron read counts": 2.56
  },
  {
    "sequence record": "FNCPICGRPFTQKGNLLRHIKL [46F_47N_49P_50I_52G_53R_54P_55F_67L_, Q9UKT9]",
    "log2 fold change of degron read counts": 1.49
  },
  {
    "sequence record": "FFCPICGAPFTQKGNLLRHIKL [46F_47F_49P_50I_52G_53A_54P_55F_67L_, Q9UKT9]",
    "log2 fold change of degron read counts": 3.92
  },
  {
    "sequence record": "FECPICGAPFTQKGNLLRHIKL [46F_47E_49P_50I_52G_53A_54P_55F_67L_, Q9UKT9]",
    "log2 fold change of degron read counts": 2.46
  }
]
